Measurement Description: AUC (0 to t) in Han Wistar rat at 5.3 mg/kg, po by LC-MS/MS analysis
Type: ADME, organism-based
Design: dose 5.3 mg/kg, route po
Reported Conditions: in vivo
Attribute Measured: AUC(0-t)
Please answer in the form of a number followed by its unit of measurement.

INPUT: For the compound COc1cccc2nc(-c3ccc(N4[C@@H](C)CC[C@@H]4C)nc3)n(C[C@@H]3CNCCO3)c12 , report AUC(0-t).
OUTPUT: 1600 ng·h/mL
